Each record here notes measured binding signal (plate reader).
target.desc: T1, oligopeptide ATYPSGHL (SEQ ID NO: 102)
T1 construct: Synthetic peptide, part of Loop C of AQP3
T1 peptide: ATYPSGHL
assay.summary: ELISA on coated peptide
Please respond with just the number, no unit label.

INSERT INTO measurements (binder, recorded_result) VALUES
  ('SC-B6 (IgG) (antibody, V domains shown, also called anti AQP3 antibody SC-B6) VH: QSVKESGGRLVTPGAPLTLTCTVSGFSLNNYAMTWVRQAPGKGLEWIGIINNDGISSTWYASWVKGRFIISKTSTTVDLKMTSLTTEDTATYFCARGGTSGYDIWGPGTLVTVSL VL: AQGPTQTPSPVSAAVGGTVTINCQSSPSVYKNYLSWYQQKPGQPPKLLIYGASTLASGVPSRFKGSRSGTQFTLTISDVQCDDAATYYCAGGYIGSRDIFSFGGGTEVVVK', 4);

Next up:
Reported binding signal (plate reader) of BC-H9 (IgG) (antibody, V domains shown, also called anti AQP3 antibody BC-H9) VH: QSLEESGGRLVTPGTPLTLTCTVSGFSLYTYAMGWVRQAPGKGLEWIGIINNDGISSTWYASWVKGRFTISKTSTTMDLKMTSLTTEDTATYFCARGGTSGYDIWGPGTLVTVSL VL: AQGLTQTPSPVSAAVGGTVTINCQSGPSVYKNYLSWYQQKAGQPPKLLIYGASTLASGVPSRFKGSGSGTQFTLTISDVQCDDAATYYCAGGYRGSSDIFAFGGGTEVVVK : 3.9
